Where do the numbers come from? From BigSolDB 2.1.

- MEASUREMENT_PARAMETERS: in acetone, 283.15 K
MEASUREMENT_KIND: solubility (mole fraction)
Lab note: record just the number, no unit beside it.

input: Using the record for Cc1c(C(=O)c2c[nH]n(C)c2=O)ccc(S(C)(=O)=O)c1C1=NOCC1 , report its solubility (mole fraction).
output: 0.00112

====

- MEASUREMENT_PARAMETERS: in isobutyl acetate, 313.15 K
MEASUREMENT_KIND: solubility (mole fraction)

input: Using the record for Cc1c(C(=O)c2c[nH]n(C)c2=O)ccc(S(C)(=O)=O)c1C1=NOCC1 , report its solubility (mole fraction).
output: 0.000934
